Test system: Viola tricolor
Test: Herbicidal effect pre-emergence
Assay type: in vivo
Conditions: 320 g/ha, visual grading after ca. 3 weeks vs untreated controls
I'd appreciate it if you could supply herbicidal effect VIOTR values for the items below.
Numbers only, in %.

Past entries and their recorded results:
# Compound, System under test, Measured value
measured = [
    ("C/C=C/c1cn(CC2CCCCC2)c(=O)c2snc(N)c12", "Viola tricolor", 80),
    ("N#Cc1cn(CC2CCCCC2)c(=O)c2snc(N)c12", "Viola tricolor", 100),
    ("C=C(OCC)c1cn(CC2CCCCC2)c(=O)c2snc(N)c12", "Viola tricolor", 100),
    ("Nc1nsc2c(=O)n(CC3CCCCC3)c(CO)cc12", "Viola tricolor", 80),
    ("COCc1cc2c(N)nsc2c(=O)n1CC1CCCCC1", "Viola tricolor", 100),
]

# per-item lookup of herbicidal effect VIOTR; items listed below
1. COCC(=O)Nc1nsc2c(=O)n(CC3CCCCC3)cc(Cl)c12
2. CCC(=O)Nc1nsc2c(=O)n(CC3CCCCC3Cl)cc(Cl)c12 (racemic) [Example I-173]
3. O=C(Nc1nsc2c(=O)n(CC3CCCCC3Cl)cc(Cl)c12)C(F)(F)F (racemic)
4. Nc1nsc2c(=O)n(CC3CCCCC3Cl)cc(Cl)c12 (racemic) [Example I-155]
5. Nc1nsc2c(=O)n(Cc3cc(F)c(F)cc3F)cc(Cl)c12
6. CC(C)c1cc2c(NC(=O)C(F)(F)C(F)(F)F)nsc2c(=O)n1CC1CCCCC1
7. CCC(=O)N(C(=O)CC)c1nsc2c(=O)n(CC3CCCCC3)cc(Cl)c12

Result ::
[100, 100, 100, 100, 100, 100, 100]

* * *

Test system: Amaranthus retroflexus
Test: Herbicidal effect pre-emergence
Type: in vivo
Settings: 320 g/ha, visual grading after ca. 3 weeks vs untreated controls
Reported metric: herbicidal effect AMARE
Record the result as a number with its unit.

# Smiles representation, Measured value
rows = [
    ("CCC(=O)N(C(=O)CC)c1nsc2c(=O)n(CC3CCCCC3)cc(Br)c12", "100%"),
    ("C/C=C/c1cn(CC2CCCCC2)c(=O)c2snc(N)c12", "90%"),
    ("CCc1cn(CC2CCCCC2)c(=O)c2snc(NC(=O)C(F)(F)C(F)(F)F)c12", "100%"),
    ("C=Cc1cc2c(N)nsc2c(=O)n1CC1CCCCC1", "90%"),
    ("CC(C)Cc1cc2c(NC(=O)C(F)(F)F)nsc2c(=O)n1CC1CCCCC1", "90%"),
]

# per-item lookup of herbicidal effect AMARE; items listed below
1. Nc1nsc2c(=O)n(Cc3cc(F)c(F)cc3F)cc(Cl)c12
2. C=C(OCC)c1cn(CC2CCCCC2)c(=O)c2snc(N)c12
3. N#Cc1cn(CC2CCCCC2)c(=O)c2snc(N)c12
4. O=C(Nc1nsc2c(=O)n(CC3CCCCC3)cc(Cl)c12)C(F)(F)C(F)(F)F

Result ::
100%
90%
100%
100%

* * *

Tested on: Alopecurus myosuroides
Test: Herbicidal effect pre-emergence
Type: in vivo
Settings: 320 g/ha, visual grading after ca. 3 weeks vs untreated controls
I'd appreciate it if you could supply herbicidal effect ALOMY values for the items below.
One number for each entry, in %.

Past entries and their recorded results:
# Molecule, Units of measure, Measured value
rows = [
    ("O=C(Nc1nsc2c(=O)n(CC3CCCCC3Cl)cc(Cl)c12)C(F)F (racemic) [Example I-160]", "%", 100),
    ("Nc1nsc2c(=O)n(CC3CCCCC3Cl)cc(Cl)c12 (racemic) [Example I-156]", "%", 100),
]

# per-item lookup of herbicidal effect ALOMY; items listed below
1. O=C(Nc1nsc2c(=O)n(Cc3cc(F)c(F)cc3F)cc(F)c12)C(F)F [Example I-165]
2. Nc1nsc2c(=O)n(Cc3cc(F)c(F)cc3F)cc(Cl)c12 [Example I-136]
3. CCC(=O)Nc1nsc2c(=O)n(CC3CCCCC3)cc(Cl)c12 [Example I-083]
4. CC(C)(C)OC(=O)OC1CN(CC2CCCCC2)C(=O)c2snc(N)c21 (stereo not shown) [Example I-138]
5. CCC(=O)N(C(=O)CC)c1nsc2c(=O)n(CC3CCCCC3)c(CO)cc12 [Example I-049]
6. CCC(=O)Nc1nsc2c(=O)n(CC3CCCCC3)cc(Br)c12 [Example I-078]
7. O=C(Nc1nsc2c(=O)n(CC3CCCCC3)cc(Cl)c12)C(F)(F)F [Example I-086]

Result ::
100
100
100
100
80
100
100

# per-item lookup of herbicidal effect ALOMY; items listed below
1. CCC(=O)Nc1nsc2c(=O)n(CC3CCCCC3)c(CO)cc12 [Example I-048]
2. COCC(=O)Nc1nsc2c(=O)n(CC3CCCCC3)cc(Br)c12 [Example I-087]
3. COCc1cc2c(N)nsc2c(=O)n1CC1CCCCC1 [Example I-028]
4. O=C(Nc1nsc2c(=O)n(CC3CCCCC3)cc(Br)c12)C(F)(F)F [Example I-088]

Result ::
1. 80
2. 100
3. 90
4. 100
